Test: Pharmacokinetic study in mice (plasma, brain, CSF)
Assay type: in vivo, mouse
Conditions: male, C57BL/6, mouse, CSF, intravenous 5 mg/Kg single dose
parameterMeasured: AUC(0-inf) (ng·h/mL)
Numbers only here, please. The scale is ng·h/mL.

query: What AUC(0-inf) value was documented for this molecule, CNc1nc(Nc2ccc(C(=O)N3CCN(C[C@H]4CC[C@H](CSC(C)(C)[C@H](NC(=O)C5(F)CC5)C(=O)N5C[C@H](O)CC5C(=O)NCc5ccc(-c6scnc6C)cc5)CC4)CC3)cc2OC)ncc1Cl (stereo partly shown) ?
result: 240

---

Target: LRRK2^WT (Mus musculus, UniProt Q5S006)
Construct: endogenous in cells; host or cells: primary wild-type mouse embryonic fibroblasts (MEFs)
Sequence (Q5S006 whole entry): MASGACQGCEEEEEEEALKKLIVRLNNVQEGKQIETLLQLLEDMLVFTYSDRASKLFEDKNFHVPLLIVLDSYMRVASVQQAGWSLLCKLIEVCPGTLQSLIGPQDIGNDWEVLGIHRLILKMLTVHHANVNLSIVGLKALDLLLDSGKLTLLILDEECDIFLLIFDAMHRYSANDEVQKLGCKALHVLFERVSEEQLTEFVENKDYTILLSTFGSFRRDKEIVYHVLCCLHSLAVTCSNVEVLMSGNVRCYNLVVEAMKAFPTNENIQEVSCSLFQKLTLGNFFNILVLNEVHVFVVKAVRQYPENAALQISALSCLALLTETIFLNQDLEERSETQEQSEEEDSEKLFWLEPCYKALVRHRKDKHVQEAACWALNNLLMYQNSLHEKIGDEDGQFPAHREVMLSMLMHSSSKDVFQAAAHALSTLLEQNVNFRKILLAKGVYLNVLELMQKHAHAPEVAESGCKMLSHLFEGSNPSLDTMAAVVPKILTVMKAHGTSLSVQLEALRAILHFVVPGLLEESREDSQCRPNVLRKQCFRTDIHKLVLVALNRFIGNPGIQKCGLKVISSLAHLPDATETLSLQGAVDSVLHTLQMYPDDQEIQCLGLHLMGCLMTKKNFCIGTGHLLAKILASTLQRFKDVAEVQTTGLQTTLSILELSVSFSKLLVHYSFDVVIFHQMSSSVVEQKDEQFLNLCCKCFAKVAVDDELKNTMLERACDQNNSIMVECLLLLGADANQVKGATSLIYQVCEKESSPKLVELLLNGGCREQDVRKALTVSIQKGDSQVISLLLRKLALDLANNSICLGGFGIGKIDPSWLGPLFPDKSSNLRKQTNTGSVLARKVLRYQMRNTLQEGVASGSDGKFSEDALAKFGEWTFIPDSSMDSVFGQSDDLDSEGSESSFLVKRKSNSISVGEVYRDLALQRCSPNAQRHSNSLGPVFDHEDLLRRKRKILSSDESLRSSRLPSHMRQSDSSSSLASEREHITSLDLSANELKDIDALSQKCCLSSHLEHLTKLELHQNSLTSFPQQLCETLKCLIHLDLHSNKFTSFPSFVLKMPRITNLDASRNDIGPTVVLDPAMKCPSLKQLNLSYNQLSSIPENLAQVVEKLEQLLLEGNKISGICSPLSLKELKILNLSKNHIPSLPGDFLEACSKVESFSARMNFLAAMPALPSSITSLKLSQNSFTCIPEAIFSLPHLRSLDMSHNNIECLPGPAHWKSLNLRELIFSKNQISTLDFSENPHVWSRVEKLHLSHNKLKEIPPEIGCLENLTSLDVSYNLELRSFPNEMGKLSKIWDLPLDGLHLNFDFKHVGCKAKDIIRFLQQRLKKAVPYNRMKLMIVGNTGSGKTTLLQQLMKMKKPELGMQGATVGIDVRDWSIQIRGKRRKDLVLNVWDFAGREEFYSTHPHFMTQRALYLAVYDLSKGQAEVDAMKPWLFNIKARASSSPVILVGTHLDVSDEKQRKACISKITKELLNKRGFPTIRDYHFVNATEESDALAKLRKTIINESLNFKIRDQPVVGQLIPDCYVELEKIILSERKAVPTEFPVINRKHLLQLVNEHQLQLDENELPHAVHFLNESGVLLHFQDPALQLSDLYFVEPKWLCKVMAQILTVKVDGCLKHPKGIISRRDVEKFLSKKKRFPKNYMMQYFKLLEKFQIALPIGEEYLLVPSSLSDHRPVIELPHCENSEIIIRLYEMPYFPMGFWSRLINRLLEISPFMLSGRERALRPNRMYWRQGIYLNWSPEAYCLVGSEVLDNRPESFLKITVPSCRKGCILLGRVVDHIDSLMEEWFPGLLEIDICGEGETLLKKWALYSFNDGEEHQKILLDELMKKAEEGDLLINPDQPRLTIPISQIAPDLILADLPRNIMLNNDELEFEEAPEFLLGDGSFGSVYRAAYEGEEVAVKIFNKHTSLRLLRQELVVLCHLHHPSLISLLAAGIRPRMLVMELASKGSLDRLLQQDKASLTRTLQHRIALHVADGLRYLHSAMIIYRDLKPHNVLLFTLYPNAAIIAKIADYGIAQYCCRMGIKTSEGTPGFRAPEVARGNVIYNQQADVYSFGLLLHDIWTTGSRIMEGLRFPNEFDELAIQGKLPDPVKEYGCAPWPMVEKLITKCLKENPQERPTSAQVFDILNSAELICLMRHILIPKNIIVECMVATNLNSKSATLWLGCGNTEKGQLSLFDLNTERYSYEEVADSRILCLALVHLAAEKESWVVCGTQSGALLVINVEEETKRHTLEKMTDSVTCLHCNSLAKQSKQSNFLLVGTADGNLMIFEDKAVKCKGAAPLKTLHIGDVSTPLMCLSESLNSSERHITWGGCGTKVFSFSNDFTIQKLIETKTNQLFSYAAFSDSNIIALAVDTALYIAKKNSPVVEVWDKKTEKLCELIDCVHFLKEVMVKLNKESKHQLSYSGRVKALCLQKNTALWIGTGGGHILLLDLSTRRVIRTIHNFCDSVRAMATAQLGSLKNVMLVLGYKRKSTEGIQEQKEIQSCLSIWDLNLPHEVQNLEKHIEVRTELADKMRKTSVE
Test: Western blot LRRK2 degradation in WT MEFs
Type: cell-based
Settings: dose response, 4 h treatment
Mark each entry t if its DC50 sits below 40 nM, and f for all others.

Some entries whose results are on file:
>>> classification("CNc1nc(Nc2ccc(C(=O)N3CCN(C[C@H]4CC[C@H](CSC(C)(C)[C@H](NC(=O)C5(F)CC5)C(=O)N5C[C@H](O)CC5C(=O)NCc5ccc(-c6scnc6C)cc5)CC4)CC3)cc2OC)ncc1Cl (some centres unmarked) [XL01126]")
"t"
>>> classification("CNc1nc(Nc2ccc(C(=O)N3CCN(C[C@H]4CC[C@@H](CSC(C)(C)[C@H](NC(=O)C5(F)CC5)C(=O)N5C[C@H](O)CC5C(=O)NCc5ccc(-c6scnc6C)cc5)CC4)CC3)cc2OC)ncc1Cl (some centres unmarked) [XL01134]")
"t"
>>> classification("CNc1nc(Nc2ccc(C(=O)N3CCN(C[C@H]4CC[C@H](CSC(C)(C)[C@H](NC(=O)C5(F)CC5)C(=O)N5C[C@H](O)CC5C(=O)NCc5ccc(-c6scnc6C)cc5F)CC4)CC3)cc2OC)ncc1Cl (some centres unmarked) [XL02047]")
"f"
>>> classification("CNc1nc(Nc2ccc(C(=O)N3CCN(C[C@H]4CC[C@H](CSC(C)(C)[C@H](NC(=O)C5(F)CC5)C(=O)N5C[C@H](O)[C@H](F)C5C(=O)NCc5ccc(-c6scnc6C)cc5)CC4)CC3)cc2OC)ncc1Cl (some centres unmarked) [XL02152]")
"f"

query: API: query returns whether the compound falls strictly under 40 nM in DC50. Query: CNc1nc(Nc2ccc(C(=O)N3CCN(C[C@H]4CO[C@H](CSC(C)(C)[C@@H](NC(=O)C5(F)CC5)C(=O)N5C[C@H](O)C[C@H]5C(=O)NCc5ccc(-c6scnc6C)cc5)CO4)CC3)cc2OC)ncc1Cl [XL02098]
result: f

query: Given the entry CNc1nc(Nc2ccc(C(=O)N3CCN(C[C@H]4CC[C@H](CSC(C)(C)[C@H](NC(=O)C5(F)CC5)C(=O)N5C[C@H](O)CC5C(=O)NCc5ccc(-c6scnc6C)cc5C)CC4)CC3)cc2OC)ncc1Cl (some centres unmarked) [XL02048] , would its reported DC50 be below 40 nM?
result: f

query: Check if DC50 falls below 40 nM for CNc1nc(Nc2ccc(C(=O)N3CCN(C(=O)[C@H]4CC[C@H](CSC(C)(C)[C@H](NC(=O)C5(F)CC5)C(=O)N5C[C@H](O)CC5C(=O)NCc5ccc(-c6scnc6C)cc5)CC4)CC3)cc2OC)ncc1Cl (some centres unmarked) [XL02068] .
result: f
